Attribute: melting point
observation type: melting point

[[record]]
compound = "Brc1ccc(Br)nn1"
measured_value = "116 to 117 °C"

[[record]]
compound = "ClCc1cc2ccccc2nc1Cl"
measured_value = "114 to 115 °C"

[[record]]
compound = "Cc1ccc(C2(C(=O)O)CCCC2)cc1"
measured_value = "181 to 184 °C"

[[record]]
compound = "CCOc1c2cccc1Cc1cccc(c1O)Cc1cccc(c1OP(=O)(OCC)OCC)Cc1cccc(c1O)C2"
measured_value = "173 to 174 °C"

[[record]]
compound = "Cc1nc2nn(C)cc2c(=O)n1N"
measured_value = "147 to 148 °C"

[[record]]
compound = "Cn1nc(N)c2c(=O)cc[nH]c21"
measured_value = "215 to 220 °C"

[[record]]
compound = "c1ccc2cc3c(cc2c1)oc1ccccc13"
measured_value = "202 to 207 °C"

[[record]]
compound = "COC(=O)[C@H]1CC[C@H](C(=O)OC)CC1"
measured_value = "67 to 70 °C"

[[record]]
compound = "CC1=CC=CC2Cc3ccccc3C(=O)N12 (centres undefined)"
measured_value = "98 °C"


---

observation type: melting point

[[record]]
compound = "O=C(O)c1cscc1Sc1ccc(Cl)cc1"
observation_type = "melting point"
measured_value = "195 to 198 °C"

[[record]]
compound = "CC(=O)Nc1ccc(C#N)c(C(F)(F)F)c1"
observation_type = "melting point"
measured_value = "170 to 173 °C"

[[record]]
compound = "NC(=O)CCC(N)=O"
observation_type = "melting point"
measured_value = "260 to 265 °C"

[[record]]
compound = "CSc1nc2[nH]c(=S)[nH]c(=O)c2n1C"
observation_type = "melting point"
measured_value = "289 to 290 °C"

[[record]]
compound = "CCn1c2c(c3cc(OC)ccc31)CCc1cc(OC)ccc1-2"
observation_type = "melting point"
measured_value = "145 to 147 °C"

[[record]]
compound = "Cn1ncc(Br)c1NC(=O)CCl"
observation_type = "melting point"
measured_value = "137 to 139 °C"

[[record]]
compound = "Cc1ccc(N2CSc3nnc(-c4cccc([N+](=O)[O-])c4)n3C2)cc1"
observation_type = "melting point"
measured_value = "> 300 °C"

[[record]]
compound = "C/C(CCc1oc2c(Br)cc(Br)cc2c1-c1ccc(C)o1)=N/O"
observation_type = "melting point"
measured_value = "157 to 158 °C"

[[record]]
compound = "CC(=O)OCC1(C)CCCC23COC4CC5C(C)C(=O)C6(C(CC12)OC(C)(C)OC56)C43 (centres undefined)"
observation_type = "melting point"
measured_value = "156 °C"

[[record]]
compound = "O=S1(=O)CC=C(Cl)C1"
observation_type = "melting point"
measured_value = "90 to 92 °C"

[[record]]
compound = "CCCCCCCCCCCCOc1ccc(C(C)=O)cc1OCCCCCCCCCCCC"
observation_type = "melting point"
measured_value = "62 to 67 °C"

[[record]]
compound = "CC(=O)N1CCC(c2c[nH]c3ccccc23)CC1"
observation_type = "melting point"
measured_value = "174 to 176 °C"

[[record]]
compound = "O=Cc1csc(-c2ccc(C(F)(F)F)cc2)n1"
observation_type = "melting point"
measured_value = "103 to 105 °C"

[[record]]
compound = "CCCCCC(O)CCCC (centres undefined)"
observation_type = "melting point"
measured_value = "8 °C"

[[record]]
compound = "OC(c1ccc(Cl)cc1)c1cc2ccccc2o1 (centres undefined)"
observation_type = "melting point"
measured_value = "48.5 °C"

[[record]]
compound = "C/C(=N/Nc1ccccc1)C1=Cc2ccccc2C1"
observation_type = "melting point"
measured_value = "225 °C"

[[record]]
compound = "CC=CCCCCC"
observation_type = "melting point"
measured_value = "-80 °C"

[[record]]
compound = "COS(=O)(=O)c1ccc(C)cc1"
observation_type = "melting point"
measured_value = "28.5 °C"

[[record]]
compound = "CCN(CCO)c1ccc(N=Nc2ccc([N+](=O)[O-])cc2Cl)cc1"
observation_type = "melting point"
measured_value = "133 °C"


Each recorded value in this set is attributed to a melting point compilation (Tetko et al.).
